# ASSAY_EXPLANATION: Solubility experiment
# Format: physicochemical
# DETAILS: water, room temperature
MEASURED_ATTRIBUTE: Solubility (mg/mL) H2O

Here is how some compounds turned out for Solubility (mg/mL) H2O.
The measured Solubility (mg/mL) H2O associated with Cc1cc(N2CCN(Cc3cc(F)c(C(=O)NS(=O)(=O)C4CC4)cc3Cl)CC2)ccc1Cl [crystal form E-1] reads >2.669 mg/mL

Record Cc1cc(N2CCN(Cc3cc(F)c(C(=O)NS(=O)(=O)C4CC4)cc3Cl)CC2)ccc1Cl [crystal form E-3] , field Solubility (mg/mL) H2O: >2.780 mg/mL

Now for the compound whose Solubility (mg/mL) H2O we want.
In plain terms, Cc1cc(N2CCN(Cc3cc(F)c(C(=O)NS(=O)(=O)C4CC4)cc3Cl)CC2)ccc1Cl [crystal form F] has a documented Solubility (mg/mL) H2O of >3.154 mg/mL
